Where do these numbers come from? They come from paper PMC4823711.

biological target: thrombin (Homo sapiens, UniProt P00734); assay: Thrombin inhibition in the presence of exosite 1 (HirP) and exosite 2 (UFH) ligands; assay type: biochemical; design: 6 nM plasma α-thrombin; purchased Haematologic Technologies (Essex Junction, VT); conditions: [UFH] 0 μM, Dixon-Webb relationship; read-out: IC50,predicted
reported property: IC50 (nM)
Report the value in nM with no unit label.

[Q] Need IC50, item "O=c1oc2cc(OCCCCn3cc(COc4ccc(-c5c(-c6ccccc6)c6cc(Cl)cc(Cl)c6oc5=O)cc4)nn3)ccc2c(-c2ccccc2)c1-c1ccc(OS(=O)(=O)O)cc1"
[A] 170

###

target: thrombin (Homo sapiens, UniProt P00734); assay: Chromogenic substrate hydrolysis assay, thrombin inhibition (Spectrozyme TH); format: biochemical; set-up: 6 nM plasma α-thrombin; purchased Haematologic Technologies (Essex Junction, VT); conditions: up to 250 μM
reported property: thrombin inhibition (in words)

O=c1oc2cc(OS(=O)(=O)O)ccc2c(Cc2ccc(Cl)cc2)c1-c1ccccc1 [2p]	active
O=c1oc2cc(OS(=O)(=O)O)ccc2c(-c2ccccc2)c1-c1ccc(Cl)cc1Cl [2k]	active
O=c1oc2cc(OS(=O)(=O)O)ccc2c(-c2ccccc2)c1-c1cccc(Cl)c1 [2e]	active

###

target: thrombin (Homo sapiens); test: Thrombin inhibition in the presence of exosite 1 (HirP) and exosite 2 (UFH) ligands; assay type: biochemical; set-up: 6 nM plasma α-thrombin; purchased Haematologic Technologies (Essex Junction, VT); settings: [UFH] 22.8 μM, pH 7.4, 25 °C; read-out: IC50,app
reported property: IC50
Note: a bare number is incomplete; add the unit.

[Q] Need IC50, item O=c1oc2cc(OCCCCn3cc(COc4ccc(-c5c(-c6ccccc6)c6cc(Cl)cc(Cl)c6oc5=O)cc4)nn3)ccc2c(-c2ccccc2)c1-c1ccc(OS(=O)(=O)O)cc1 [3g]
[A] 580 nM

###

target: thrombin (Homo sapiens, UniProt P00734); assay: Thrombin inhibition in the presence of exosite 1 (HirP) and exosite 2 (UFH) ligands; assay type: biochemical; design: 6 nM plasma α-thrombin; purchased Haematologic Technologies (Essex Junction, VT); conditions: [HirP] 187 nM, Dixon-Webb relationship; read-out: IC50,predicted
reported property: IC50 (nM)
Report the value in nM with no unit label.

[Q] Need IC50, item "O=c1oc2cc(OCCCCn3cc(COc4ccc(-c5c(-c6ccccc6)c6cc(Cl)cc(Cl)c6oc5=O)cc4)nn3)ccc2c(-c2ccccc2)c1-c1ccc(OS(=O)(=O)O)cc1"
[A] 670

###

Target: thrombin (Homo sapiens)
Assay: Thrombin inhibition in the presence of exosite 1 (HirP) and exosite 2 (UFH) ligands
Assay type: biochemical
Design: 6 nM plasma α-thrombin; purchased Haematologic Technologies (Essex Junction, VT)
Conditions: [UFH] 11.4 μM, Dixon-Webb relationship; read-out: IC50,predicted
Method: Thrombin inhibition by 3g was examined in the presence of either HirP (exosite 1 ligand) or UFH (exosite 2 ligand). […] After 10 min, thrombin activity was measured using Spectrozyme TH hydrolysis assay, as described above. […] The IC50,app at each concentration of the competitor was also calculated using the Dixon-Webb relationship (equation 3) from the known affinities (Kcomp) of the competitor.
reported property: pIC50
Please note pIC50 is a logarithmic value: minus log10 of concentration in mol/L. Answer with that number alone.

[Q] Need pIC50, item "O=c1oc2cc(OCCCCn3cc(COc4ccc(-c5c(-c6ccccc6)c6cc(Cl)cc(Cl)c6oc5=O)cc4)nn3)ccc2c(-c2ccccc2)c1-c1ccc(OS(=O)(=O)O)cc1"
[A] 6.54

###

biological target: thrombin mutant R126A (Homo sapiens, UniProt P00734, R486A); construct: a group of thrombin mutants containing replacement of either Arg or Lys present in exosite 2 to Ala; experiment: Inhibition of thrombin mutant R126A; conditions: pH 7.4, 25 °C
reported property: IC50 (nM)
Report the value in nM with no unit label.

[Q] Need IC50, item "O=c1oc2cc(OCCCCn3cc(COc4ccc(-c5c(-c6ccccc6)c6cc(Cl)cc(Cl)c6oc5=O)cc4)nn3)ccc2c(-c2ccccc2)c1-c1ccc(OS(=O)(=O)O)cc1"
[A] 308

###

target: thrombin mutant R173A (Homo sapiens, UniProt P00734, R541A); construct: a group of thrombin mutants containing replacement of either Arg or Lys present in exosite 2 to Ala; test: Inhibition of thrombin mutant R173A; details: pH 7.4, 25 °C
reported property: pIC50
Please note pIC50 is a logarithmic value: minus log10 of concentration in mol/L. Answer with that number alone.

[Q] Need pIC50, item "O=c1oc2cc(OCCCCn3cc(COc4ccc(-c5c(-c6ccccc6)c6cc(Cl)cc(Cl)c6oc5=O)cc4)nn3)ccc2c(-c2ccccc2)c1-c1ccc(OS(=O)(=O)O)cc1"
[A] 6.28

###

biological target: thrombin (Homo sapiens, UniProt P00734); test: Thrombin inhibition in the presence of exosite 1 (HirP) and exosite 2 (UFH) ligands; type: biochemical; design: 6 nM plasma α-thrombin; purchased Haematologic Technologies (Essex Junction, VT); conditions: [UFH] 0 μM, pH 7.4, 25 °C; read-out: IC50,app
reported property: pIC50
Please note pIC50 is a logarithmic value: minus log10 of concentration in mol/L. Answer with that number alone.

[Q] Notebook entry, thrombin (Homo sapiens, UniProt P00734) assay: pIC50 of O=c1oc2cc(OCCCCn3cc(COc4ccc(-c5c(-c6ccccc6)c6cc(Cl)cc(Cl)c6oc5=O)cc4)nn3)ccc2c(-c2ccccc2)c1-c1ccc(OS(=O)(=O)O)cc1 [3g] = ?
[A] 6.77
